test system: PPARg:RXRa 90nM:30nM, anti-RXR (NR concentration 90 nM, RXRa partner concentration 30 nM); experiment: PBM binding z-score (relative to random genomic background probes); higher = stronger binding; sequences stand for … in GC…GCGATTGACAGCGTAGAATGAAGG
experimental.readout: PBM binding z-score
Number only, no unit.

Example results:
input.sequence | PBM binding z-score
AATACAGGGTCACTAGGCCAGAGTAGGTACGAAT | 5.66
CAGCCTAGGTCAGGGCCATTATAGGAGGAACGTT | 0.533
ACTTACGGGTCAACGAGTTTATAGCACGCGTATA | 4.12

Proceed to the following item.
Query block: What does the data say about its PBM binding z-score? Entry: "AATACAGGGTCATCCTAGGCCAGAGTACGCACAG"
Result block: 4.48
